What IL-6 mRNA expression, % UTC was measured for each of the following?
- System: IL-6 mRNA
- test: IL-6 mRNA in LPS-activated primary murine macrophages
- Assay type: cell-based, mouse
- testSettings: 600 nM, −IFN, average of 3 treatments
- Description: To investigate the role of miRNAs in the immune response, oligomeric compounds of the present invention targeting miRNAs were tested for their effects upon lipopolysaccharide (LPS)-activated primary murine macrophages. Macrophages participate in the immune response, for example, in the recognition and phagocytosis of microorganisms, including bacteria. […]
In the oligonucleotide strings, read from the 5' end, every base follows the letter of its sugar. An asterisk marks phosphorothioate; unmarked linkages are phosphodiester. Other units and linkages are bracketed, terminal groups are in braces. A string of capitals states the bases alone. e = 2'-O-(2-methoxyethyl) (MOE); [5mC] = 5-methylcytosine; d = 2'-deoxy (DNA)

# input Given the entry 289606 (antisense CCUUCCCUGAAGGUUCCUCC; all 2'-MOE, all C 5-methyl, all phosphorothioate, T or U not given here) [compound 289606] , report its measured IL-6 mRNA expression, % UTC.
# output 77 % UTC

# input Given the entry 342683 (antisense CCTTCCCTGAAGGTTCCTCCTT; scrambled control, further chemistry not given here) [compound 342683] , report its measured IL-6 mRNA expression, % UTC.
# output 311 % UTC

# input Given the entry 327921 (antisense e[5mC]*eT*eT*e[5mC]*e[5mC]*eA*eG*eT*e[5mC]*eG*eG*eG*eG*eA*eT*eG*eT*eT*eT*eA*e[5mC]*eA) [compound 327921] , report its measured IL-6 mRNA expression, % UTC.
# output 632 % UTC

# input Given the entry 129690 (antisense TTAGAATACGTCGCGTTATG; sugars from the 5' end e5 d10 e5, all phosphorothioate, methylation of C not given here) [compound 129690] , report its measured IL-6 mRNA expression, % UTC.
# output 258 % UTC

# input Given the entry 229927 (antisense e[5mC]*e[5mC]*eA*e[5mC]*eA*dT*dT*dG*dA*dG*dT*dT*dT*d[5mC]*dT*eT*eT*eA*eA*eG) [compound 229927] , report its measured IL-6 mRNA expression, % UTC.
# output 104 % UTC

# input Given the entry 327941 (antisense eA*eA*e[5mC]*e[5mC]*e[5mC]*eA*e[5mC]*e[5mC]*eG*eA*e[5mC]*eA*eG*e[5mC]*eA*eA*eT*eG*eA*eA*eT*eG*eT*eT) [compound 327941] , report its measured IL-6 mRNA expression, % UTC.
# output 501 % UTC

---

What IGFBP-1 (% UTC) was measured for each of the following?
- Test system: IGFBP-1
- test: IGFBP-1 mRNA expression in HepG2 cells
- Type: cell-based, human
- testSettings: Experiment 1, basal (no insulin); HepG2; 100 nM oligomeric compound
In the oligonucleotide strings, read from the 5' end, every base follows the letter of its sugar. An asterisk marks phosphorothioate; unmarked linkages are phosphodiester. Other units and linkages are bracketed, terminal groups are in braces. A string of capitals states the bases alone. e = 2'-O-(2-methoxyethyl) (MOE); [5mC] = 5-methylcytosine
Give the value, in units of % UTC, as a plain number.

# input Given the entry 327933 (antisense eA*eA*eG*eG*eG*eA*eT*eT*e[5mC]*e[5mC]*eT*eG*eG*eG*eA*eA*eA*eA*e[5mC]*eT*eG*eG*eA*e[5mC]) [compound 327933] , report its measured IGFBP-1 (% UTC).
# output 125

# input Given the entry 327925 (antisense eT*eA*eG*e[5mC]*eT*eG*eG*eT*eT*eG*eA*eA*eG*eG*eG*eG*eA*e[5mC]*e[5mC]*eA*eA) [compound 327925] , report its measured IGFBP-1 (% UTC).
# output 152

# input Given the entry 327889 (antisense eG*eT*eG*eG*eT*eA*eA*eT*e[5mC]*e[5mC]*e[5mC]*eT*eG*eG*e[5mC]*eA*eA*eT*eG*eT*eG*eA*eT) [compound 327889] , report its measured IGFBP-1 (% UTC).
# output 56

# input Given the entry 338664 (antisense e[5mC]*eA*eG*eA*e[5mC]*eT*e[5mC]*e[5mC]*e[5mC]*eA*eA*e[5mC]*eT*eG*eA*e[5mC]*e[5mC]*eA*eG*eA) [compound 338664] , report its measured IGFBP-1 (% UTC).
# output 90

# input Given the entry 327892 (antisense eA*e[5mC]*eT*eT*eT*e[5mC]*eG*eG*eT*eT*eA*eT*e[5mC]*eT*eA*eG*e[5mC]*eT*eT*eT*eA) [compound 327892] , report its measured IGFBP-1 (% UTC).
# output 108

---

- Test system: HeLa cells
- test: Cell cycle assay in HeLa cells
- Type: cell-based, human
- testSettings: HeLa cells, 150 nM oligomeric compound, 48 hours after treatment; relative to untreated control (UTC=100)
In the oligonucleotide strings, read from the 5' end, every base follows the letter of its sugar. An asterisk marks phosphorothioate; unmarked linkages are phosphodiester. Other units and linkages are bracketed, terminal groups are in braces. A string of capitals states the bases alone. e = 2'-O-(2-methoxyethyl) (MOE); [5mC] = 5-methylcytosine
What % cells in cell cycle phase: subG1 was measured for each of the following?

# input Given the entry 327957 (antisense e[5mC]*eA*e[5mC]*eA*eA*eG*eT*eT*e[5mC]*eG*eG*eA*eT*e[5mC]*eT*eA*e[5mC]*eG*eG*eG*eT*eT) [compound 327957] , report its measured % cells in cell cycle phase: subG1.
# output 864%

# input Given the entry 327892 (antisense eA*e[5mC]*eT*eT*eT*e[5mC]*eG*eG*eT*eT*eA*eT*e[5mC]*eT*eA*eG*e[5mC]*eT*eT*eT*eA) [compound 327892] , report its measured % cells in cell cycle phase: subG1.
# output 121%

# input Given the entry 327907 (antisense eA*eG*e[5mC]*e[5mC]*eT*eA*eT*e[5mC]*e[5mC]*eT*eG*eG*eA*eT*eT*eA*e[5mC]*eT*eT*eG*eA*eA) [compound 327907] , report its measured % cells in cell cycle phase: subG1.
# output 116%

# input Given the entry 338797 (antisense CTGGGGAGGGGGTTAGCGTC; all 2'-MOE, all phosphorothioate, methylation of C not given here) [compound 338797] , report its measured % cells in cell cycle phase: subG1.
# output 813%

# input Given the entry 338750 (antisense TCCGCGGGGGCGGGGAGGCT; all 2'-MOE, all phosphorothioate, methylation of C not given here) [compound 338750] , report its measured % cells in cell cycle phase: subG1.
# output 201%

---

- Test system: HeLa cells
- test: Cell cycle assay in HeLa cells
- Format: cell-based, human
- testSettings: HeLa cells, 150 nM oligomeric compound, 48 hours after treatment; relative to untreated control (UTC=100)
In the oligonucleotide strings, read from the 5' end, every base follows the letter of its sugar. An asterisk marks phosphorothioate; unmarked linkages are phosphodiester. Other units and linkages are bracketed, terminal groups are in braces. A string of capitals states the bases alone. e = 2'-O-(2-methoxyethyl) (MOE); [5mC] = 5-methylcytosine; d = 2'-deoxy (DNA)
metricName: % cells in cell cycle phase: aneuploid (%)
Give the value, in units of %, as a plain number.

# input Given the entry 341788 (antisense AGCCAAGCTCAGACGGATCCGA; all 2'-MOE, all phosphorothioate, methylation of C not given here) [compound 341788] , report its measured % cells in cell cycle phase: aneuploid.
# output 116

# input Given the entry 338769 (antisense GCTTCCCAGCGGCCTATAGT; all 2'-MOE, all phosphorothioate, methylation of C not given here) [compound 338769] , report its measured % cells in cell cycle phase: aneuploid.
# output 194

# input Given the entry 328421 (antisense eG*e[5mC]*eT*eT*eA*dG*d[5mC]*dT*dG*dT*dG*dT*d[5mC]*dT*dT*eA*e[5mC]*eA*eG*e[5mC]) [compound 328421] , report its measured % cells in cell cycle phase: aneuploid.
# output 64

# input Given the entry 328724 (antisense eG*eA*e[5mC]*eA*eT*d[5mC]*dA*dT*dG*dT*dG*dA*dT*dT*dT*eG*e[5mC]*eT*e[5mC]*eA) [compound 328724] , report its measured % cells in cell cycle phase: aneuploid.
# output 155

# input Given the entry 328388 (eT*e[5mC]*e[5mC]*e[5mC]*eA*dT*dA*dG*d[5mC]*dA*dG*dG*dG*d[5mC]*dA*eG*eA*eG*e[5mC]*e[5mC]; antisense) [compound 328388] , report its measured % cells in cell cycle phase: aneuploid.
# output 126

# input Given the entry 338836 (antisense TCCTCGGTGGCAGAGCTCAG; all 2'-MOE, all phosphorothioate, methylation of C not given here) [compound 338836] , report its measured % cells in cell cycle phase: aneuploid.
# output 165

# input Given the entry 338666 (antisense TCACGTGGAGAGGAGTTAAA; all 2'-MOE, all phosphorothioate, methylation of C not given here) [compound 338666] , report its measured % cells in cell cycle phase: aneuploid.
# output 125

# input Given the entry 327922 (antisense eT*e[5mC]*eA*eG*eT*eT*eT*eT*eG*e[5mC]*eA*eT*eG*eG*eA*eT*eT*eT*eG*e[5mC]*eA*e[5mC]*eA) [compound 327922] , report its measured % cells in cell cycle phase: aneuploid.
# output 91

# input Given the entry 328362 (eT*eG*eT*eG*eT*dT*dT*dT*d[5mC]*dT*dG*dA*d[5mC]*dT*d[5mC]*eA*eG*eT*e[5mC]*eA) [compound 328362] , report its measured % cells in cell cycle phase: aneuploid.
# output 97

# input Given the entry 327907 (antisense eA*eG*e[5mC]*e[5mC]*eT*eA*eT*e[5mC]*e[5mC]*eT*eG*eG*eA*eT*eT*eA*e[5mC]*eT*eT*eG*eA*eA) [compound 327907] , report its measured % cells in cell cycle phase: aneuploid.
# output 94

# input Given the entry 338756 (antisense TGCCCTGCTCAGAGCCCTAG; all 2'-MOE, all phosphorothioate, methylation of C not given here) [compound 338756] , report its measured % cells in cell cycle phase: aneuploid.
# output 169
